system tested: T1, rat serum albumin (rat, UniProt P02770 25-608)
T1 construct: also called RSA
assay protocol: SPR (BIAcore), eight-point dilution kinetics
test readout: pKd
# reply with the number alone; pKd is -log10 of concentration in mol/L

Entry DOM7r-31-14 (VHH) VHH: EVQLLESGGGLVQPGGSLRLSCTASGFTFRHYRMGWVRQAPGKGLEWVSWIRPDGTFTYYADSVKGRFTISRDNSKNTLYLQMNSLRAEDTAVYYCAKSYMADRFDYWGQGTLVTVSS needs its pKd filled in; supply it.
7.34

Entry DOM7r-201 (VHH) VHH: EVQLLESGGGLVQPGGSLRLSCAASGFTFNHYTMGWVRQAPGKGLEWVSLIHPSGTVIYYADSVKGRFTISRDNSKNTLYLQMNSLRAEDTAVYYCAKWSSRAFDYWGQGTLVTVSS needs its pKd filled in; supply it.
6.62
